# inhibition at 0.123 µM values compiled below
Biological target: HIV-1 protease (Human immunodeficiency virus type 1 group M subtype B)
Assay: biochemical
Settings: read-out: HIV-1 Protease % Inhib, dose 0.123 uM
reported_property: inhibition at 0.123 µM

# compound, result
data = [
    ("CCNC(=O)Nc1cccc(C(c2c(O)c3c(oc2=O)CCCCCC3)C2CC2)c1 (stereo not shown) [Example 223]", "11.1%"),
    ("CCS(=O)(=O)Nc1cccc(C(c2c(O)c3c(oc2=O)CCCCC3)C2CC2)c1 (stereo not shown) [Example 365]", "11.7%"),
    ("O=c1oc2c(c(O)c1C(c1cccc(NS(=O)(=O)CCc3ccccc3)c1)C1CC1)CCCCCC2 (stereo not shown) [Example 346]", "75.1%"),
    ("O=C(CCn1ccc2ccccc21)Nc1cccc(C(c2c(O)c3c(oc2=O)CCCCC3)C2CC2)c1 (stereo not shown) [Example 215]", "13.5%"),
    ("O=c1oc2c(c(O)c1C(c1cccc(NS(=O)(=O)c3ccc(CBr)cc3)c1)C1CC1)CCCCCC2 (stereo not shown) [Example 403]", "41.6%"),
    ("O=C(O)c1ccc(S(=O)(=O)Nc2cccc(C(c3c(O)c4c(oc3=O)CCCCCC4)C3CC3)c2)cc1 (stereo not shown) [Example 276]", "53.4%"),
    ("O=c1oc2c(c(O)c1C(c1cccc(NS(=O)(=O)c3ccc(Cl)c(Cl)c3Cl)c1)C1CC1)CCCCCC2 (stereo not shown) [Example 410]", "49.5%"),
    ("CC(C)CC1CCCCc2c1oc(=O)c(C(c1ccccc1)C1CC1)c2O (stereo not shown) [Example 183]", "20.9%"),
    ("O=c1oc2c(c(O)c1C(c1cccc(NS(=O)(=O)c3cccc(NCCO)c3)c1)C1CC1)CCCCCC2 (stereo not shown) [Example 355 (First Title Compound)]", "117%"),
    ("CCc1ccc(S(=O)(=O)Nc2cccc(C(c3c(O)c4c(oc3=O)CCCCCC4)C3CC3)c2)cc1 (stereo not shown) [Example 341]", "59.4%"),
    ("O=c1oc2c(c(O)c1C(c1cccc(NS(=O)(=O)c3ccc4ccccc4c3)c1)C1CC1)CCCCCC2 (stereo not shown) [Example 266]", "79.8%"),
    ("CC(C)(C)OC(=O)N[C@H](Cc1c[nH]cn1)C(=O)Nc1cccc(C(c2c(O)c3c(oc2=O)CCCCCC3)C2CC2)c1 (stereo partly shown) [Example 204]", "49%"),
    ("O=c1oc2c(c(O)c1C(c1cccc(NS(=O)(=O)c3cc(S(=O)(=O)c4ccccc4)cs3)c1)C1CC1)CCCCCC2 (stereo not shown) [Example 298]", "67.4%"),
    ("CC(CO)C1CCCCCc2c1oc(=O)c(C(c1ccccc1)C1CC1)c2O (stereo not shown) [Example 161]", "20%"),
    ("O=c1oc2c(c(O)c1C(c1cccc(NS(=O)(=O)c3ccccc3F)c1)C1CC1)CCCCCC2 (stereo not shown) [Example 281]", "55.5%"),
    ("CC(C)(C)OC(=O)N1CCC[C@H]1C(=O)Nc1cccc(C(c2c(O)c3c(oc2=O)CCCCCC3)C2CC2)c1 (stereo partly shown) [Example 202]", "20.1%"),
]

###

Target: HIV-1 protease (Human immunodeficiency virus type 1 group M subtype B, UniProt P04585)
Experiment: biochemical
Conditions: read-out: HIV-1 Protease % Inhib, dose 1.100 uM
reported_property: inhibition at 1.1 µM

# compound, result
data = [
    ("O=c1oc2c(c(O)c1C(c1cccc(NS(=O)(=O)CCc3ccccc3)c1)C1CC1)CCCCCC2 (stereo not shown)", "97.3%"),
    ("O=c1oc2c(c(O)c1C(c1cccc(NS(=O)(=O)c3ccc4ccccc4c3)c1)C1CC1)CCCCCC2 (stereo not shown)", "104%"),
    ("O=c1oc2c(c(O)c1C(c1cccc(NS(=O)(=O)c3cccs3)c1)C1CC1)CCCCCC2 (stereo not shown)", "100%"),
    ("CC(C)C(c1cccc(NS(=O)(=O)c2ccc(F)cc2)c1)c1c(O)c2c(oc1=O)CCCCCC2 (stereo not shown)", "98.6%"),
    ("CCCCC1CCCCCc2c1oc(=O)c(C(c1ccccc1)C1CC1)c2O (stereo not shown)", "96.5%"),
    ("O=c1oc2c(c(O)c1C(c1ccccc1)C1CC1)CCCCC2CC1CCCO1 (stereo not shown)", "69.8%"),
    ("CCCC1CCCCc2c1oc(=O)c(C(c1ccccc1)C1CC1)c2O (stereo not shown)", "82.2%"),
]
